test system: Plasmodium falciparum; assay: Calibr Malaria Delayed Death Assay SOP; assay type: functional, organism-based; design: scale not given: in the data most compounds retested in dose-response had high values; settings: concentration 4.99e-06 (unit not given; other assays of the set use mol/L)
About 1,200 (3.2%) of roughly 38,000 compounds showed an effect of 50% or more. The median lay at about -58%. This is one part of a sample in which strong results are shown more often than they occur.
# label = bin(measured Percent Effect), where bins are lower level: < -40%; middle level: ≥ -40% and < 30%; upper level: ≥ 30%

Examples from the recorded data:
compound | group.label
Cc1ccc(OCC2CCCN(c3nc(CO)cs3)C2)cc1 (centres undefined) | middle level
Cn1ccnc1CN1CCC(c2ccnc(-c3cccc(O)c3)c2)C1 (centres undefined) | middle level
O=S1(=O)CCCN(Cc2ccccc2OCC(F)(F)F)CC1 | middle level
CCCc1nnc(N2CCN(Cc3ccccc3OC)CC2)o1 | lower level
COc1ccc(Oc2nccc3occc23)cc1CN1CCCC1 | upper level

Please report the category associated with CSc1ccc(-c2nc(CN3CCNCC3C)c(C)o2)cc1 (centres undefined) , nothing else.
upper level

Request: `CSc1ccc(-c2nc(CN3C[C@@H](C)NC[C@@H]3C)c(C)o2)cc1`
lower level

Request: O=c1[nH]c2cc3c(cc2cc1CN1CCCC1c1ccccn1)CCC3 (centres undefined)
lower level

Request: CC[C@]12CN3C[C@](CC)(CN(C1)C3c1[nH]c(=O)[nH]c(=O)c1C)C2=O (some centres undefined)
lower level

====

test system: Plasmodium falciparum; assay: Calibr Malaria Delayed Death Assay SOP; assay type: functional, organism-based; design: scale not given: in the data most compounds retested in dose-response had high values; settings: concentration 4.99e-06 (unit not given; other assays of the set use mol/L)
In all, about 38,000 compounds went through this assay and about 1,200 (3.2%) showed an effect of 50% or more. The median lay at about -58%. The full list was thinned out, with strong results kept by preference.
reported.endpoint: Percent Effect (%)
Value expressed in %; do not type the unit.

Please review the entries below; each comes with its answer.
chem.smiles | reported.endpoint | recorded.value
CN1CCN([C@H]2COC[C@@H]3CN(Cc4cccnc4)C[C@@H]32)CC1 | Percent Effect | -16.78
O=C(O)C(F)(F)F.O=C(O)C(F)(F)F.c1cc2c(cc1CN1C[C@@H]3COC[C@@H](N4CCCC4)[C@@H]3C1)OCO2 | Percent Effect | 41.71
COc1ccc(CN2C[C@@H]3COC[C@@H](N4CCN(C)CC4)[C@@H]3C2)cc1.O=C(O)C(F)(F)F.O=C(O)C(F)(F)F.O=C(O)C(F)(F)F | Percent Effect | 72.48

Shift focus to the following entry.
Record request: Percent Effect value, item `CN(C)[C@H]1COC[C@@H]2CN(Cc3ccc4c(c3)OCO4)C[C@@H]21.O=C(O)C(F)(F)F.O=C(O)C(F)(F)F`
25.51

====

system: Plasmodium falciparum; test: Calibr Malaria Delayed Death Assay SOP; format: functional, organism-based; parameters: scale not given: in the data most compounds retested in dose-response had high values; conditions: concentration 4.99e-06 (unit not given; other assays of the set use mol/L)
In all, about 38,000 compounds went through this assay and about 1,200 (3.2%) showed an effect of 50% or more. The median lay at about -58%. Only a selection was taken, and strong results are over-represented in it overall.
Listed here: items and their measured Percent Effect.

Please review the entries below; each comes with its answer.
compound | Percent Effect
NC(=O)C1CN(c2ccc3cc(Br)ccc3n2)CCO1 (configuration not stated) | -657.4%
COc1ccccc1C1(CNCc2cccc(O)c2)CCOCC1 | 82.33%
CN(C)c1ccc(C(=O)NCC2(c3ccccc3)CCOCC2)cc1 | -48.74%

Give recorded Percent Effect with Plasmodium falciparum for the following compound: O=C(Cn1cc(C2CC2)nn1)N(Cc1cccs1)CC1CCCO1 (configuration not stated)
-9.508%

Request: `COc1ccccc1C1(CNc2ncc(S(N)(=O)=O)s2)CC1`
-83.98%

Request: COc1ccc2c(c1)C(NCCc1ccccn1)CCCO2 (configuration not stated)
57.17%

Request: COc1c(CNC2CCCOc3ccccc32)c(C)nn1C (configuration not stated)
-45.12%

Request: `CCc1nc(CN2CCCN(Cc3noc(C4CC4)n3)CC2)cs1`
-72.76%

Request: Oc1cccc(CNCCC2CCCO2)c1 (configuration not stated)
-6.783%

Request: `Cc1nnc2ccc(OCCNS(=O)(=O)c3cccs3)nn12`
-74.14%

Request: O=C(C(CNCc1cccc(O)c1)c1ccccc1)N1CCOCC1 (configuration not stated)
-54.71%

Request: Cc1ccc2c(c1)OCCCC2NC1CCN(C)CC1 (configuration not stated)
47.45%
